{"Molecule": "COC(=O)c1ccc(C(O)c2cc3cc(Cl)cnc3n2S(=O)(=O)c2ccc(C(C)C)cc2)cc1 (centres undefined)", "melting point": "77 °C"}
{"Molecule": "NC(=O)N1CCC(c2nn(-c3ccc(C(F)(F)F)cc3)c3ccc(F)cc23)CC1", "melting point": "172 to 174 °C"}
{"Molecule": "O=C1CN=C(c2cccc(Cl)c2)c2cc(C(=O)c3ccc(Cl)cc3)ccc2N1", "melting point": "265 °C"}
{"Molecule": "COCN(c1cccc2cc(C(=O)/N=C/N(C)C)n(COC)c12)S(=O)(=O)c1cccs1", "melting point": "146 to 147 °C"}
{"Molecule": "C[C@H](Cc1ccc2c(c1)cc(C(=O)O)n2Cc1ccccc1)NC[C@H](O)c1cccc(Cl)c1", "melting point": "128 to 130 °C"}
{"Molecule": "CN1C[C@H](CN2CCN(C(c3ccccc3)c3ccccc3)CC2)C=C2c3cccc4[nH]c(Cl)c(c34)C[C@H]21", "melting point": "208 °C"}
{"Molecule": "COc1cccc(CNC(=O)c2nc3ccccc3c(=O)[nH]2)c1", "melting point": "186 to 189 °C"}
{"Molecule": "Cc1nc(Cl)c(C)c(Cl)c1C", "melting point": "67 to 68 °C"}
{"Molecule": "CCCn1c(=O)nc(Sc2ccc(Cl)cc2)sc1=S", "melting point": "151 to 152 °C"}

---

Known melting point of a selection of compounds
Observable: melting point

{"Compound": "CC(C)(C)c1cc(C(=O)c2cc3c(cc2O)CCC3)cc(C(C)(C)C)c1O", "Reading": "155 to 156 °C"}
{"Compound": "CCC1(C)OC(=O)C(c2ccccc2)C(=O)O1 (stereo not given)", "Reading": "135 to 136 °C"}
{"Compound": "O=c1cc(CO)occ1OCCC12CC3CC(CC(C3)C1)C2", "Reading": "155 to 157 °C"}
{"Compound": "O=S(=O)(c1ccccc1)n1ccc2c(Cl)nc(-c3ccccc3)nc21", "Reading": "259 to 260 °C"}
{"Compound": "CCCCCCN1CCC(C(=O)NCC)(c2ccccc2)CC1", "Reading": "92 to 94 °C"}
{"Compound": "Cc1ccc(CCN2CCN(c3noc4ccccc34)CC2)c2c1C(C)(C)CCN2", "Reading": "135 °C"}
{"Compound": "Cc1ccc(-c2nc(COc3cccc(OCc4cccc(C)c4C(=O)O)c3)co2)s1", "Reading": "129 to 130 °C"}
{"Compound": "CC(C)(O)c1ccc(-c2cnc3[nH]c(=O)n(CC4CCOCC4)c3n2)cc1", "Reading": "212 to 214 °C"}
{"Compound": "Cc1ccc(NC(=O)c2cccc(N3CCOCC3)c2)cc1NC(=O)c1cccc(N(C)S(C)(=O)=O)c1", "Reading": "208 to 209 °C"}
{"Compound": "Nc1nc(OCc2cccc(Br)c2)ncc1F", "Reading": "143 to 145 °C"}
{"Compound": "COC(=O)C(C)(C)Cc1ccc2oc(-c3ccc4ccc(Cl)cc4n3)cc2c1", "Reading": "137 to 138 °C"}
{"Compound": "NC(=O)CN(C(=O)CCCOc1ccc([N+](=O)[O-])c(C=O)c1)C1CCCCC1", "Reading": "104 to 105 °C"}
{"Compound": "CC(C)(C)c1ccc(OCCCN2CCC(C(O)(c3ccc(F)cc3)c3ccc(F)cc3)CC2)cc1", "Reading": "126 to 127 °C"}
{"Compound": "CCCOc1nc2ccsc2c(=O)n1CCC", "Reading": "42 to 45 °C"}
{"Compound": "CNC(=O)C(N)C(N)=O (stereo not given)", "Reading": "121 to 122 °C"}
{"Compound": "O=C(Nc1ccc(Cl)cc1)c1c(O)c2cccnc2n(-c2ccccc2)c1=O", "Reading": "281 to 286 °C"}
{"Compound": "CN1CCN(c2cc3c(c(N)c2F)c(=O)c(C(=O)O)cn3C2CC2)CC1", "Reading": "216 to 218 °C"}
{"Compound": "CC(=O)n1ccc(N2CCCC2)c1C(=O)c1cccnc1Nc1cccc(Cl)c1", "Reading": "170 to 173 °C"}
{"Compound": "COc1cc2c(OC)c3c(c(-c4ccc5c(c4)OCO5)c2cc1OC)C(=O)OC3", "Reading": "256 to 258 °C"}
{"Compound": "COC(=O)c1cn(C)c2cc(OC)c(C(F)(F)F)cc12", "Reading": "166 to 170 °C"}
{"Compound": "CC(=O)CSc1nnnn1C", "Reading": "31 °C"}
{"Compound": "COc1cc2ncc(C#N)c(Nc3cc(Cl)c(O)c(Cl)c3)c2cc1OC", "Reading": "> 250 °C"}
{"Compound": "CC(C)(C)OC(=O)[C@H](CC1CC1)N1C(=O)NC(C(F)(F)F)(C(F)(F)F)C1=O", "Reading": "76 to 77 °C"}
{"Compound": "CN(CCCCNC(=O)c1cc2ccccc2s1)C1CCc2ncsc2C1 (stereo not given)", "Reading": "105 °C"}
{"Compound": "O=C(CCCCCCCCC(=O)OCCO)OCCO", "Reading": "47 °C"}
{"Compound": "CCN(CC)C(=O)CC1CCN(Cc2cnc3cc(NC(=O)c4ccc(-c5ccc(F)cc5)cc4)c(C)cc3c2)CC1", "Reading": "197 °C"}
{"Compound": "CCOC(=O)COCCc1cc2cc(Cl)ccc2n1S(=O)(=O)c1ccccc1", "Reading": "60 to 62 °C"}
{"Compound": "CC12CC(=O)C3C(CCC4CC5OC5CC43C)C1CCC2C#N (stereo not given)", "Reading": "206 to 208 °C"}
{"Compound": "CCOC(=O)C(=C1CCCN1C)c1ccc(F)cc1", "Reading": "80 °C"}
{"Compound": "NS(=O)(=O)c1ccc(-c2c(-c3ccccc3)noc2CC(=O)C(F)(F)F)cc1", "Reading": "132 to 139 °C"}
{"Compound": "CCOC(=O)CC12C(OS(=O)(=O)C(F)(F)F)=CC(C(C)CCCC(C)C)C1(C)CCC1=C2CCC2CC(OC(=O)c3ccccc3)CCC12C (stereo not given)", "Reading": "132 to 134 °C"}
{"Compound": "Clc1ccc2ncn3cnnc3c2c1", "Reading": "179 to 182 °C"}
{"Compound": "OCC1OC(n2cnc3c(NCCCCC(c4ccccc4)c4ccccc4)ncnc32)C(O)C1O (stereo not given)", "Reading": "78 to 82 °C"}
{"Compound": "CC(C)Cn1c(CN(C)C(N)=O)nc2c(N)nc3ccccc3c21", "Reading": "223 to 225 °C"}
{"Compound": "CC(=O)NCCc1ccc(NC(=O)C=C2CC(C(=O)O)Nc3cc(Cl)cc(Cl)c32)cc1 (racemic)", "Reading": "254 to 256 °C"}
{"Compound": "CC(c1ccc(-c2ccccc2)c(F)c1)c1csc(N)n1 (stereo not given)", "Reading": "167 to 168 °C"}
{"Compound": "CC1(C)Oc2c(c(Cl)cc(Cl)c2-n2c(=O)cc(C(F)(F)F)[nH]c2=O)C1=O", "Reading": "308 to 320 °C"}
{"Compound": "O=C(CO)c1ccc(F)cc1", "Reading": "116 to 117 °C"}
{"Compound": "COc1cc(-c2nc3cc(F)ccc3s2)ccc1OC(=O)N1CCOCC1", "Reading": "126 °C"}
{"Compound": "O=C(Nc1ccc(Oc2ccnc(NC3CCC3)n2)c2ccccc12)c1cc(F)cc(N2CCOCC2)c1", "Reading": "110 to 112 °C"}
